target: HLA-A*68:02; experiment: IEDB peptide-MHC binding, purified MHC/competitive/fluorescence; filed as Kd, often an IC50 or EC50 that approximates it; bounds were set here for any values at or beyond the usual limits of such assays; conditions: source organism: Coxiella burnetii RSA 331
Test Readout: Kd

I'd like to know its Kd. The sequence in question is HMNKLPLAK
≥ 20 µM

###

target: HLA-A*31:01; test: IEDB peptide-MHC binding, purified MHC/competitive/radioactivity; filed as Kd, often an IC50 or EC50 that approximates it; bounds were set here for any values at or beyond the usual limits of such assays; conditions: source organism: Triticum aestivum
Test Readout: Kd (nM)
Unit nM implied. Number only.

I'd like to know its Kd. The sequence in question is QQHNIVHGK
2370

###

biological target: HLA-B*08:01; assay: IEDB peptide-MHC binding, purified MHC/competitive/fluorescence; filed as Kd, often an IC50 or EC50 that approximates it; bounds were set here for any values at or beyond the usual limits of such assays; conditions: source organism: Human immunodeficiency virus 1
pKd: −log10 of the molar value.
Test Readout: pKd

I'd like to know its pKd. The sequence in question is GSEEIKSLF
≤ 4.70

###

target: HLA-B*40:02; test: IEDB peptide-MHC binding, purified MHC/competitive/fluorescence; bounds were set here for any values at or beyond the usual limits of such assays; settings: source organism: Monodelphis domestica
Test Readout: IC50

I'd like to know its IC50. The sequence in question is FLLPILSQIYT
≥ 20 µM

###

molecular target: HLA-B*57:01; assay: IEDB peptide-MHC binding, purified MHC/competitive/fluorescence; filed as Kd, often an IC50 or EC50 that approximates it; bounds were set here for any values at or beyond the usual limits of such assays; details: source organism: Mycobacterium tuberculosis variant bovis BCG str. Pasteur 1173P2
Test Readout: Kd

Recall the recorded Kd for RLAPEPVYT with HLA-B*57:01 and state it.
≥ 20 µM

###

target: HLA-A*03:01; test: IEDB peptide-MHC binding, purified MHC/competitive/fluorescence; filed as Kd, often an IC50 or EC50 that approximates it; bounds were set here for any values at or beyond the usual limits of such assays; details: source organism: Vibrio parahaemolyticus AQ3810
Test Readout: pKd
In textbook form, pKd equals minus log to base ten of the concentration in mol/L.

I'd like to know its pKd. The sequence in question is MMYTVSLGH
8.92

###

List of pKd values.
molecular target: HLA-B*15:17; assay: IEDB peptide-MHC binding, purified MHC/direct/fluorescence; filed as Kd, often an IC50 or EC50 that approximates it; bounds were set here for any values at or beyond the usual limits of such assays; conditions: source organism: Marburg virus - Musoke, Kenya, 1980
pKd: −log10 of the molar value.

I'd like to know its pKd. The sequence in question is KRLLLKLDF
≤ 4.70

Next sequence, pKd to be filled in.
I'd like to know its pKd. The sequence in question is NQECWDSVF
≤ 4.70

###

target: HLA-A*31:01; assay: IEDB peptide-MHC binding, purified MHC/competitive/radioactivity; filed as Kd, often an IC50 or EC50 that approximates it; bounds were set here for any values at or beyond the usual limits of such assays; conditions: source organism: Lymphocytic choriomeningitis virus (strain Armstrong)
List of pKd values.
In textbook form, pKd equals minus log to base ten of the concentration in mol/L.

Recall the recorded pKd for NYSKFWYLEH with HLA-A*31:01 and state it.
5.23

Others:
Recall the recorded pKd for NSESLSLISH with HLA-A*31:01 and state it.
4.77

###

biological target: HLA-A*24:02; assay: IEDB peptide-MHC binding, purified MHC/competitive/radioactivity; filed as Kd, often an IC50 or EC50 that approximates it; bounds were set here for any values at or beyond the usual limits of such assays; settings: source organism: Triticum aestivum
Test Readout: Kd

I'd like to know its Kd. The sequence in question is SFQQPQQQY
≥ 77.6 µM

###

target: HLA-B*27:05; assay: IEDB peptide-MHC binding, purified MHC/direct/fluorescence; filed as Kd, often an IC50 or EC50 that approximates it; bounds were set here for any values at or beyond the usual limits of such assays; settings: source organism: Camelpox virus M-96
Test Readout: pKd
In textbook form, pKd equals minus log to base ten of the concentration in mol/L.

I'd like to know its pKd. The sequence in question is IQFMHEQGY
6.03

###

target: HLA-A*30:01; test: IEDB peptide-MHC binding, purified MHC/competitive/radioactivity; filed as Kd, often an IC50 or EC50 that approximates it; bounds were set here for any values at or beyond the usual limits of such assays; conditions: source organism: Lassa virus Josiah
Test Readout: Kd (µM)
Unit µM implied. Number only.

I'd like to know its Kd. The sequence in question is LISIFLHLV
1.17

###

target: HLA-B*58:01; assay: IEDB peptide-MHC binding, purified MHC/direct/fluorescence; filed as Kd, often an IC50 or EC50 that approximates it; bounds were set here for any values at or beyond the usual limits of such assays; details: source organism: Yersinia pestis
Test Readout: pKd
In textbook form, pKd equals minus log to base ten of the concentration in mol/L.

I'd like to know its pKd. The sequence in question is YGLGSTPLY
4.98

###

target: HLA-A*29:02; assay: IEDB peptide-MHC binding, purified MHC/direct/fluorescence; filed as Kd, often an IC50 or EC50 that approximates it; bounds were set here for any values at or beyond the usual limits of such assays; conditions: source organism: Reston ebolavirus
Test Readout: Kd

I'd like to know its Kd. The sequence in question is ITDEINQIK
≥ 20 µM

###

biological target: HLA-B*44:02; assay: IEDB peptide-MHC binding, purified MHC/direct/fluorescence; filed as Kd, often an IC50 or EC50 that approximates it; bounds were set here for any values at or beyond the usual limits of such assays; settings: source organism: Influenza A virus (A/England/627/01(H1N2))
pKd: −log10 of the molar value.
Test Readout: pKd

I'd like to know its pKd. The sequence in question is KMARLGKGY
≤ 4.70

###

biological target: HLA-A*02:12; experiment: IEDB peptide-MHC binding, purified MHC/competitive/fluorescence; filed as Kd, often an IC50 or EC50 that approximates it; bounds were set here for any values at or beyond the usual limits of such assays; details: source organism: Entamoeba dispar SAW760
Test Readout: pKd
In textbook form, pKd equals minus log to base ten of the concentration in mol/L.

I'd like to know its pKd. The sequence in question is LVGNTLTTC
5.34

###

biological target: HLA-B*15:01; experiment: IEDB peptide-MHC binding, purified MHC/direct/fluorescence; filed as Kd, often an IC50 or EC50 that approximates it; bounds were set here for any values at or beyond the usual limits of such assays; details: source organism: Giardia intestinalis
Test Readout: Kd

I'd like to know its Kd. The sequence in question is INTLESMMK
≥ 20 µM

###

biological target: HLA-B*51:01; assay: IEDB peptide-MHC binding, purified MHC/competitive/fluorescence; filed as Kd, often an IC50 or EC50 that approximates it; bounds were set here for any values at or beyond the usual limits of such assays; details: source organism: Mycobacterium tuberculosis variant bovis BCG str. Pasteur 1173P2
Test Readout: Kd

I'd like to know its Kd. The sequence in question is RLAPEPVYT
≥ 20 µM

###

target: HLA-B*15:09; test: IEDB peptide-MHC binding, purified MHC/direct/fluorescence; filed as Kd, often an IC50 or EC50 that approximates it; bounds were set here for any values at or beyond the usual limits of such assays; conditions: source organism: Influenza A virus (A/Taiwan/2/2006(H1N1))
Test Readout: Kd

I'd like to know its Kd. The sequence in question is GTSKIKMKW
≥ 20 µM

###

molecular target: HLA-B*58:01; assay: IEDB peptide-MHC binding, purified MHC/direct/fluorescence; filed as Kd, often an IC50 or EC50 that approximates it; bounds were set here for any values at or beyond the usual limits of such assays; settings: source organism: Corynebacterium diphtheriae
pKd: −log10 of the molar value.
Test Readout: pKd

Recall the recorded pKd for VERRLVKVL with HLA-B*58:01 and state it.
≤ 4.70

###

target: HLA-B*40:01; assay: IEDB peptide-MHC binding, purified MHC/direct/fluorescence; filed as Kd, often an IC50 or EC50 that approximates it; bounds were set here for any values at or beyond the usual limits of such assays; details: source organism: Mycobacterium tuberculosis variant bovis BCG str. Pasteur 1173P2
Test Readout: pKd
In textbook form, pKd equals minus log to base ten of the concentration in mol/L.

I'd like to know its pKd. The sequence in question is AELRHLNPL
7.35

###

target: HLA-A*02:01; experiment: IEDB peptide-MHC binding, cellular MHC/competitive/fluorescence; bounds were set here for any values at or beyond the usual limits of such assays; details: source organism: Human immunodeficiency virus 1
Test Readout: IC50
Output should be the measured figure followed by the unit it is expressed in.

I'd like to know its IC50. The sequence in question is VLDVGDAYFSV
7 µM
